B1: library; a variant is named by its letters at N, in order (parent)
chain: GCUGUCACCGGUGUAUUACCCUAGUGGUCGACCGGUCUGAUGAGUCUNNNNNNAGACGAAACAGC

Variants of: B1
test-summary: normalized RNA/DNA level with ligand (relative to sTRSVctl = 100) (log10 (% of sTRSVctl)); ligand: hypoxanthine (xanthine aptamer); higher = less ribozyme self-cleavage, higher mRNA level
assay-context: ligand concentration (+) RNA-Seq: 5 mM, HEK293T, reporter: mCherry (pCS4076), ligand present: yes
measurement-type: normalized RNA/DNA level with ligand (log10)
Answers are plain numbers.

UGAACG :: 1.91
CCACCG :: 1.99
UGUCCA :: 1.89
AGAGGG :: 1.84
CACGAC :: 1.95
CUAACG :: 1.92

Batch lookup, normalized RNA/DNA level with ligand (log10) per entry.
1. GGUCGA
2. CGACUG
3. AUGGGU
4. ACCGAC
5. AUAAUC
6. ACGUGG

[1.95, 1.94, 1.88, 1.97, 1.94, 1.54]

Look at each variant and report its normalized RNA/DNA level with ligand (log10).
1. AGCUAA
2. GGCAAG
3. UACAGC
4. GCCUAG
5. GGAUCA
6. UCAAGC
7. AUCAAC

[1.91, 1.88, 1.96, 1.89, 1.96, 1.96, 1.99]

Each of the following entries comes with a recorded value; kindly state normalized RNA/DNA level with ligand (log10) for each.
1. GAGUUA
2. UCGUUU
3. AUCCAC
4. GCGGUA
5. UUCAAU
6. UCGUGG
7. UACAGA
8. CGAGCU

[1.89, 1.96, 1.95, 1.94, 1.94, 1.9, 1.91, 1.97]

Required: normalized RNA/DNA level with ligand (log10), one value per variant below.
1. GAGAUG
2. GGGGUC
3. UCCUAC
4. UACCGC
5. GGAGGU

1. 1.65
2. 1.94
3. 2.01
4. 1.94
5. 1.92

// data source = the supplement of paper PMC6757056
